Listing: pEC50 of selected compounds
# target-entity: Hsp90 (Candida albicans, UniProt P46598)
# Sequence (P46598 whole entry): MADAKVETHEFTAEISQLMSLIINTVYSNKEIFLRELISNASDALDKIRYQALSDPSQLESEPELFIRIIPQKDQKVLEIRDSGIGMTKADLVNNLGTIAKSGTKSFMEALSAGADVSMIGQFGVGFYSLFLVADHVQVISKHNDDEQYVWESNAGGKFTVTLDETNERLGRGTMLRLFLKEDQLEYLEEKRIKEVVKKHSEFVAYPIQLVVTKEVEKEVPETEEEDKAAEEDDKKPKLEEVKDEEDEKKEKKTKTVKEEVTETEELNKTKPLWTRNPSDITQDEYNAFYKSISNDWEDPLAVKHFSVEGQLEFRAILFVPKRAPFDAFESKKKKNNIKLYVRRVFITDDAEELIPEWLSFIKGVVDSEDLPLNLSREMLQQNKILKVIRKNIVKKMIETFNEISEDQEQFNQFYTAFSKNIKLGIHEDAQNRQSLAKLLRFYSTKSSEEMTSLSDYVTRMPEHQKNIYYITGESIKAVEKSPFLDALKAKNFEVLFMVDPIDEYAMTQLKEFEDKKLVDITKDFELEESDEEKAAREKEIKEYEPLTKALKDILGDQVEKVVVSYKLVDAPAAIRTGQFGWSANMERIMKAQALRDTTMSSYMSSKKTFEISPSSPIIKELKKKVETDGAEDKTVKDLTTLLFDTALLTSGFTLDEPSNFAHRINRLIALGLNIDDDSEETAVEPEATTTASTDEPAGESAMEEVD
# procedure-summary: biochemical
pEC50: −log10 of the molar value.

Before answering, review these 2 worked examples.
INSERT INTO assay_data (compound, test_result) VALUES
  ('CCN(CC)C(=O)c1c(O)cc(O)cc1Nc1cc(-c2ccccc2)nn1Cc1ccc(OC)cc1 [Compound 39]', '< 5.00'),
  ('COc1ccc(Cn2nc(C)cc2Nc2cc(O)cc(O)c2C(=O)N(C)CC2CC2)cc1 [Compound 30]', '< 5.05');

Quote pEC50 reported for COc1ccc(Cn2nc(-c3ccccc3)cc2Nc2cc(O)cc(O)c2C(=O)N(C)CC2CC2)cc1 [Compound 31] please. < 5.05

Quote pEC50 reported for COc1ccc(Cn2nc(C)cc2Nc2cc(O)cc(O)c2C(=O)N(C)Cc2ccccc2)cc1 [Compound 37] please. < 5.22
